SYSTEM UNDER TEST: TrkA (Homo sapiens)
Sequence (P04629 33-796): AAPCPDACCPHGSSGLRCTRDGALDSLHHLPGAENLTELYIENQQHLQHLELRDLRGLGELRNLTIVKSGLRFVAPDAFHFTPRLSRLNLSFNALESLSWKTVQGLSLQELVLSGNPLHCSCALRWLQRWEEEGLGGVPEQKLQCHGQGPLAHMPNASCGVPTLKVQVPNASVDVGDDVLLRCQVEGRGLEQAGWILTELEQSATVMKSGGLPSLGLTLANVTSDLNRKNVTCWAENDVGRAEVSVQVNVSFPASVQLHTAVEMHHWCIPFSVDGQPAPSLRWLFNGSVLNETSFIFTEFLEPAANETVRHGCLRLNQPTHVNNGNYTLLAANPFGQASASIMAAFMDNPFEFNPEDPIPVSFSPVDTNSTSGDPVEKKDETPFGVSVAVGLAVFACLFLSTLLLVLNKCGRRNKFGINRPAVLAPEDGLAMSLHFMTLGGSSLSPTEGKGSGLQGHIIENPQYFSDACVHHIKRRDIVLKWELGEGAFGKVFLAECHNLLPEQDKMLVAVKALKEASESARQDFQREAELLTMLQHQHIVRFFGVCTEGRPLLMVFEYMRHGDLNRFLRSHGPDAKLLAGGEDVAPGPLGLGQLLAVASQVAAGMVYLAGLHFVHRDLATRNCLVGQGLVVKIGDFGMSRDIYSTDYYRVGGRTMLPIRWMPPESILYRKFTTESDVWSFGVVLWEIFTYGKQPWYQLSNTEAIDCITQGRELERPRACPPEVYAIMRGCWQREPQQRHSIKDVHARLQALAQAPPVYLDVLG
ASSAY OVERVIEW: TrkA PathHunter cell-based assay (U2OS-TrkA/p75)
EXPERIMENTAL CONDITIONS: PathHunter cell-based assay
pEC50: −log10 of the molar value.

SMILES REPRESENTATION | pEC50
Cc1cc(-n2c(=O)[nH]c(=O)n(C)c2=O)ccc1Oc1ccc(S(=O)(=O)C(F)(F)F)cc1 | 5.72

====

SYSTEM UNDER TEST: TrkC (Homo sapiens)
Sequence (Q16288 32-839): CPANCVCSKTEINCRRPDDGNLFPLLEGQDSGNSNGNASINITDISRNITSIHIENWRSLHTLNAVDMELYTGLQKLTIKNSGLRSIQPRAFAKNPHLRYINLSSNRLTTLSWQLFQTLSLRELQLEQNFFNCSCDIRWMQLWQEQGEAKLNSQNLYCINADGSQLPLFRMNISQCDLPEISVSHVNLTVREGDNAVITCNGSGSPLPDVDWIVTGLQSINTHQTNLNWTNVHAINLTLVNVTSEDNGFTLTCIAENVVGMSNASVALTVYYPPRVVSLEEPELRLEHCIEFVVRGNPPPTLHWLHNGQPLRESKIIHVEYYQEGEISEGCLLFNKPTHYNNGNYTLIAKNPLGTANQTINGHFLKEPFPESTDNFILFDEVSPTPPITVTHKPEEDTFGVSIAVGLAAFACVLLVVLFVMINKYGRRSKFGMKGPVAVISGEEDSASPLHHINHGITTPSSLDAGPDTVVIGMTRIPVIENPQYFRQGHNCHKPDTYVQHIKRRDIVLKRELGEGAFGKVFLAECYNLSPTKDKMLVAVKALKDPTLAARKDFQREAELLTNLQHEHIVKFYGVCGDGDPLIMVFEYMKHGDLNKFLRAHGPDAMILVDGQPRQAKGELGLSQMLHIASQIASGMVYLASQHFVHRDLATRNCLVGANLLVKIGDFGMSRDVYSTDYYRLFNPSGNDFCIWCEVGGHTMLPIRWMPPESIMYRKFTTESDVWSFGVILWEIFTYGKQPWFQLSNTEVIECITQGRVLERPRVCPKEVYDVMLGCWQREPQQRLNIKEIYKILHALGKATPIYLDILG
ASSAY OVERVIEW: TrkC PathHunter cell-based assay (U2OS-TrkC/p75)
Excerpt: The human osteosarcoma cell lines U2OS-TrkA/p75, U2OS-TrkB/p75, U2OS-TrkC/p75, U2OS-ratTrkA/p75, U2OS-FGFR1 (fibroblast growth factor receptor 1) as well as the human embryonic kidney cell line HEK293-IGF1R (insulin-like growth factor 1 receptor) from DiscoverX, Birmingham, United Kingdom, were used in the in vitro experiments. […]
OUTCOME MEASURE: EC50

SMILES REPRESENTATION | OUTCOME MEASURE | RESULT
Cc1cc(-n2c(=O)[nH]c(=O)n(C)c2=O)ccc1Oc1ccc(S(=O)(=O)C(F)(F)F)cc1 | EC50 | 800 nM
